read-out: urokinase plasminogen activator (uPA), PLAU (gene 5328); assay: BSK_BE3C_uPA: BioMAP Diversity Plus: BE3C Assay for urokinase plasminogen activator (uPA) Biomarker Activity (AID 2283038); settings: primary human bronchial epithelial cells; actives raise or lower the signal
Active and inactive are the calls of the source. Rule for the calls: active = hit-call score of the fitted dose curve at least 0.9, where 1 is the maximum; inactive = score below 0.9.
Result category, one only: active, inactive

Would you please look over these solved cases?
[[record]]
compound = "Fc1ccc(Oc2ccnc3cc(Cl)cc(Cl)c23)cc1"
class_label = "active"

[[record]]
compound = "Cc1ccc(-c2c(Cl)nc(C#N)n2S(=O)(=O)N(C)C)cc1"
class_label = "inactive"

[[record]]
compound = "CCc1nn(C)c(C(=O)NCc2ccc(C(C)(C)C)cc2)c1Cl"
class_label = "active"


Prompt: Please state the recorded outcome for this compound: CC(C)(C)c1ccc(CSc2cnn(C(C)(C)C)c(=O)c2Cl)cc1
Response: inactive

Prompt: Please state the recorded outcome for this compound: CNC(=S)S
Response: inactive

Prompt: Please state the recorded outcome for this compound: C#CCOS(=O)OC1CCCCC1Oc1ccc(C(C)(C)C)cc1 (stereo unspecified)
Response: active

###

read-out: Alpha-fetoprotein (AFP) gene, AFP (gene 174); assay: LTEA_HepaRG_AFP: Life Technologies and Expression Analysis (LTEA) Assay for Alpha-fetoprotein (AFP) gene using HepaRG (AID 2283472); details: mRNA level, 48 h; actives raise or lower the signal
Calls of active or inactive are those of the source. Rule for the calls: active = hit-call score of the fitted dose curve at least 0.9, where 1 is the maximum; inactive = score below 0.9.
Result category, one only: active, inactive

[[record]]
compound = "COC(=O)N(OC)c1ccccc1COc1ccn(-c2ccc(Cl)cc2)n1"
class_label = "active"

[[record]]
compound = "Oc1ccccc1-c1ccccc1"
class_label = "inactive"

[[record]]
compound = "N#Cc1nn(-c2c(Cl)cc(C(F)(F)F)cc2Cl)c(N)c1S(=O)C(F)(F)F (configuration not stated)"
class_label = "active"

[[record]]
compound = "OC(c1ccc(Cl)cc1)(c1cncnc1)c1ccccc1Cl (configuration not stated)"
class_label = "active"


Prompt: Please state the recorded outcome for this compound: CC1=C(C(=O)Nc2ccccc2)SCCO1
Response: inactive

Prompt: Please state the recorded outcome for this compound: COP(N)(=O)SC (configuration not stated)
Response: inactive

Prompt: Please state the recorded outcome for this compound: Cc1c(F)c(F)c(COC(=O)C2C(/C=C(\Cl)C(F)(F)F)C2(C)C)c(F)c1F (configuration not stated)
Response: inactive

Prompt: Please state the recorded outcome for this compound: N#CC(CCc1ccc(Cl)cc1)(Cn1cncn1)c1ccccc1 (configuration not stated)
Response: active

###

read-out: Keratin 19 (KRT19), KRT19 (gene 3880); experiment: LTEA_HepaRG_KRT19: Life Technologies and Expression Analysis (LTEA) Assay for Keratin 19 (KRT19) using HepaRG (AID 2283512); conditions: mRNA level, 48 h; actives raise or lower the signal
The source made the active and inactive calls. The calls were made as follows: active = hit-call score of the fitted dose curve at least 0.9, where 1 is the maximum; inactive = score below 0.9.
Result category, one only: Yes for active, No for inactive

Would you please look over these solved cases?
[[record]]
structure_notation = "Cc1cc(Cl)ccc1OCC(=O)O"
class_label = "No"

[[record]]
structure_notation = "CC(C)(C)c1ccc(CSc2cnn(C(C)(C)C)c(=O)c2Cl)cc1"
class_label = "Yes"


Please look at the following compound next.
Prompt: Please state the recorded outcome for this compound: CCCCNC(=O)OCC#CI
Response: No

###

read-out: Interleukin-8 (IL8), CXCL8 (gene 3576); test: BSK_hDFCGF_IL8: BioMAP Diversity Plus: hDFCGF Assay for Interleukin-8 (IL8) Biomarker Activity (AID 2283058); settings: primary human foreskin fibroblasts; actives raise or lower the signal
The source made the active and inactive calls. The calls were made as follows: active = hit-call score of the fitted dose curve at least 0.9, where 1 is the maximum; inactive = score below 0.9.
Result category, one only: active, inactive

[[record]]
molecule = "CC(C)Oc1cc(-n2nc(C(C)(C)C)oc2=O)c(Cl)cc1Cl"
class_label = "inactive"

[[record]]
molecule = "Fc1ccc(Oc2ccnc3cc(Cl)cc(Cl)c23)cc1"
class_label = "inactive"

[[record]]
molecule = "CC1=C(C(=O)Nc2ccccc2)SCCO1"
class_label = "inactive"


Prompt: Please state the recorded outcome for this molecule: CON(C)C(=O)Nc1ccc(Cl)c(Cl)c1
Response: inactive

Prompt: Please state the recorded outcome for this molecule: N#Cc1nn(-c2c(Cl)cc(C(F)(F)F)cc2Cl)c(N)c1S(=O)C(F)(F)F (stereo unspecified)
Response: inactive

Prompt: Please state the recorded outcome for this molecule: C=CCC1=C(C)C(OC(=O)C2C(C=C(C)C)C2(C)C)CC1=O (stereo unspecified)
Response: active

###

read-out: Transforming Growth Factor (TGFA), TGFA (gene 7039); assay: LTEA_HepaRG_TGFA: Life Technologies and Expression Analysis (LTEA) Assay for Transforming Growth Factor (TGFA) using HepaRG (AID 2283532); conditions: mRNA level, 48 h; actives raise or lower the signal
Calls of active or inactive are those of the source. The calls were made as follows: active = hit-call score of the fitted dose curve at least 0.9, where 1 is the maximum; inactive = score below 0.9.
MEASURED_METRIC: AC50

Past entries and their recorded results:
[[record]]
compound = "CCc1nn(C)c(C(=O)NCc2ccc(C(C)(C)C)cc2)c1Cl"
measured_metric = "AC50"
reading = "16.4 µM (active)"

[[record]]
compound = "CCOC(=O)C(Cl)Cc1cc(-n2nc(C)n(C(F)F)c2=O)c(F)cc1Cl (stereo unspecified)"
measured_metric = "AC50"
reading = "inactive"

[[record]]
compound = "C#CCOS(=O)OC1CCCCC1Oc1ccc(C(C)(C)C)cc1 (stereo unspecified)"
measured_metric = "AC50"
reading = "22.2 µM (active)"

[[record]]
compound = "COC(=O)N(OC)c1ccccc1COc1ccn(-c2ccc(Cl)cc2)n1"
measured_metric = "AC50"
reading = "78.5 µM (active)"


AC50 in this record for COP(N)(=O)SC (stereo unspecified) : inactive

AC50 in this record for CCOc1cc(Oc2ccc(C(F)(F)F)cc2Cl)ccc1[N+](=O)[O-] : 15.3 µM (active)

###

assay: Tanguay_ZF_120hpf_AXIS_legacy: (Legacy) Oregon State University Tanguay Lab 120 Hour Post-fertilization zebrafish Assay for Body Axis Malformation (AID 2283635)
Inconclusive results are not listed. Calls of active or inactive are those of the source. The calls were made as follows: active = hit-call score of the fitted dose curve at least 0.9, where 1 is the maximum; inconclusive = response in the unintended direction; inactive = score below 0.9.
Result category, one only: T = active, F = inactive

Would you please look over these solved cases?
[[record]]
compound = "CCCCNC(=O)OCC#CI"
class_label = "F"

[[record]]
compound = "CC(C)(C)c1ccc(CSc2cnn(C(C)(C)C)c(=O)c2Cl)cc1"
class_label = "F"


Prompt: Please state the recorded outcome for this compound: COP(=S)(OC)Oc1nc(Cl)c(Cl)cc1Cl
Response: F

Prompt: Please state the recorded outcome for this compound: N#Cc1nn(-c2c(Cl)cc(C(F)(F)F)cc2Cl)c(N)c1S(=O)C(F)(F)F (stereo unspecified)
Response: T

Prompt: Please state the recorded outcome for this compound: Cc1cc(Cl)ccc1OCC(=O)O
Response: F

Prompt: Please state the recorded outcome for this compound: CNC(=O)ON=CC(C)(C)SC
Response: T

###

assay: CCTE_Shafer_MEA_acute_interburst_interval_mean: CCTE's Neural Acute Assay for Mean Interburst Interval, Shafer Lab (AID 2284016);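 note: percent change of mean interburst interval versus each well's own pre-dose baseline; curves fitted for decrease in interburst interval relative to DMSO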
Activity calls are given as the source filed them. The calls were made as follows: active = hit-call score of the fitted dose curve at least 0.9, where 1 is the maximum; inactive = score below 0.9.
Result category, one only: active, inactive

[[record]]
compound = "Fc1ccc(Oc2ccnc3cc(Cl)cc(Cl)c23)cc1"
class_label = "inactive"


Prompt: Please state the recorded outcome for this compound: COc1ccc(C(c2ccc(OC)cc2)C(Cl)(Cl)Cl)cc1
Response: inactive

Prompt: Please state the recorded outcome for this compound: CC(C)Oc1cc(-n2nc(C(C)(C)C)oc2=O)c(Cl)cc1Cl
Response: active

Prompt: Please state the recorded outcome for this compound: COP(N)(=O)SC (stereo not given)
Response: inactive

Prompt: Please state the recorded outcome for this compound: CCNc1nc(Cl)nc(NC(C)C)n1
Response: inactive

Prompt: Please state the recorded outcome for this compound: CCCC1COC(Cn2cncn2)(c2ccc(Cl)cc2Cl)O1 (stereo not given)
Response: inactive

Prompt: Please state the recorded outcome for this compound: OC(c1ccc(Cl)cc1)(c1cncnc1)c1ccccc1Cl (stereo not given)
Response: active

Prompt: Please state the recorded outcome for this compound: COC(=O)C(C)Oc1ccc(Oc2ccc(Cl)cc2Cl)cc1 (stereo not given)
Response: inactive

Prompt: Please state the recorded outcome for this compound: CCCN(CCC)c1c([N+](=O)[O-])cc(S(N)(=O)=O)cc1[N+](=O)[O-]
Response: active

###

molecular target: human Esterase Plasma (ES), BCHE (gene 590) (UniProt P06276); assay: NVS_ENZ_hES: NovaScreen (NVS) Enzymatic Assay for human Esterase Plasma (ES) (AID 2283157)
Sequence (P06276 whole entry, looked up): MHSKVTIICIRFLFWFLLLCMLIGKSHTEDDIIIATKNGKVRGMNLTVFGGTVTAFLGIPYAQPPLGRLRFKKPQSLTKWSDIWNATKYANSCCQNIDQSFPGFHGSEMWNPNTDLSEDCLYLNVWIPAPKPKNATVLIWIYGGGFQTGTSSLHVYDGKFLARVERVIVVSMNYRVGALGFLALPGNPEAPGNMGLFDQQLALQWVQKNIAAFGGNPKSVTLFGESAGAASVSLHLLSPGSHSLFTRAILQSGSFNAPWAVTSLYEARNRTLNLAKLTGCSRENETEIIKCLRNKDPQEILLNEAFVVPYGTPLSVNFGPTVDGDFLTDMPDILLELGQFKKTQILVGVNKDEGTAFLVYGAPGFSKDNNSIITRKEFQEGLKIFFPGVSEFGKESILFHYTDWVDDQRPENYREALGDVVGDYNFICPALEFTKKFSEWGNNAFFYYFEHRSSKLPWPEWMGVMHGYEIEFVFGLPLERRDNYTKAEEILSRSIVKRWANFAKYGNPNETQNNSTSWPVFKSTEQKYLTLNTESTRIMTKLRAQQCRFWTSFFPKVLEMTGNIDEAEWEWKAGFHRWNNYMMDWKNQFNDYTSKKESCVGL
Results filed as inconclusive are left out. Active and inactive are the calls of the source. The calls were made as follows: active = hit-call score of the fitted dose curve at least 0.9, where 1 is the maximum; inconclusive = response in the unintended direction; inactive = score below 0.9.
Result category, one only: yes for active, no for inactive

[[record]]
compound = "COC(=O)C=C(C)OP(=O)(OC)OC"
tgt = "human Esterase Plasma (ES), BCHE (gene 590) (UniProt P06276)"
class_label = "yes"

[[record]]
compound = "CCOC(=O)C(Cl)Cc1cc(-n2nc(C)n(C(F)F)c2=O)c(F)cc1Cl (stereo not given)"
tgt = "human Esterase Plasma (ES), BCHE (gene 590) (UniProt P06276)"
class_label = "no"

[[record]]
compound = "CNC(=O)ON=CC(C)(C)SC"
tgt = "human Esterase Plasma (ES), BCHE (gene 590) (UniProt P06276)"
class_label = "yes"

[[record]]
compound = "CC1=C(C(=O)Nc2ccccc2)SCCO1"
tgt = "human Esterase Plasma (ES), BCHE (gene 590) (UniProt P06276)"
class_label = "yes"


Please look at the following compound next.
Prompt: Please state the recorded outcome for this compound: CS/C(C)=N/OC(=O)N(C)SN(C)C(=O)O/N=C(\C)SC
Response: yes
